system: VPA0041-His (Vibrio parahaemolyticus RIMD 2210633)
Sequence: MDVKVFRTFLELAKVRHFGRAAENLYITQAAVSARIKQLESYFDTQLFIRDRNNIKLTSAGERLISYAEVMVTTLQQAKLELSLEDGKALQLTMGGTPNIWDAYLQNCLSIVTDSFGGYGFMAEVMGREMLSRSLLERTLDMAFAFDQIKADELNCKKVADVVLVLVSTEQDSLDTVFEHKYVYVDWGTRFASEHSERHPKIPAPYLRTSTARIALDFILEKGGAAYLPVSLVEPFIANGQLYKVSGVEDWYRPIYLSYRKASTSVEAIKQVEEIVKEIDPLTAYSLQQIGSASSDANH
assay-remarks: EMSA
test-context: EMSA: 20 uL, 10 ng probe (15 ng in Fig 5 legend), 1 ug poly(dI:dC), 4 uL 5x binding buffer (10 mM NaCl, 0.1 mM DTT, 0.1 mM EDTA, 10 mM Tris, pH 7.4), 25 C …
attribute-measured: binding

[[record]]
sequence_content = "TGCCTGCAGGTCGACGATTAGAGTTTTCCCCCTAATTTTTTTGCTTTCCGTAAACCGGAAGTTTGGTTTCCACTCTTGTTTGTAAGTCATTGATAAATATAAATAAAATTTATGGCACGTATCTTGTTTGTATCTTGGCGTATTCGAGCCGACTGTAAGGAAAGATGCATG (double strand) [vpa0264 promoter-1]"
observed = "binds"

[[record]]
sequence_content = "TGCCTGCAGGTCGACGATGTTTGTCCTGTCGAAAGAATTCCTAATAACAGTATCCACTTTGAGGAAATTAGAGTTTTCCCCCTAATTTTTTTGCTTTCCGTAAACCGGAAGTTTGGTTTCCACTCTTGTTTGTAAGTCATTGATAAATATAAATAAAATTTATGGCACGTATCTTGTTTGTATCTTGGCGTATTCGAGCCGACTGTAAGGAAAGATGCATG (double strand) [vpa0264 promoter]"
observed = "binds"

